These measurements were taken from PubChem BioAssay.

Experiment: kinase inhibitors altering Pseudomonas killing of worms, whole organism (AID 651566);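 further: tested at 14 µM; sign flipped so higher z means a lower ratio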
Conditions: C. elegans killed by P. aeruginosa, survival ratio
Kindly return YES if reported z-score is no lower than 0.3; return NO if it is lower.

COMPOUND: COc1cc2c(cc1Nc1nc(Nc3ccsc3C(N)=O)c3cc[nH]c3n1)N(C(=O)CN(C)C)CCC2(C)C
CLASS_LABEL: YES

COMPOUND: CC1(C)CC(n2cnc(-c3ccc(F)cc3)c2-c2ccnc(N)n2)CC(C)(C)N1
CLASS_LABEL: YES

COMPOUND: CCCN1CCC(Oc2cc(Nc3nc(Nc4cccc(F)c4C(N)=O)c4cc[nH]c4n3)c(OC)cc2Cl)CC1
CLASS_LABEL: YES

COMPOUND: COc1cc(/C=N/Nc2ncnc3c2cnn3Cc2ccccc2)ccc1O
CLASS_LABEL: NO

COMPOUND: CCn1c(-c2nonc2N)nc2ccccc21
CLASS_LABEL: YES

Inquiry: Confirm if z-score reported for the compound `COc1cc(Nc2ncc3c(C)nc(-c4cccc(C(F)(F)F)c4)n3n2)cc(OC)c1OC` is 0.3 or above.
Reply text: YES

Inquiry: Confirm if z-score reported for the compound `CCc1cccc(CC)c1/C=C/c1cncc(C(=O)NC)c1` is 0.3 or above.
Reply text: NO

Inquiry: Confirm if z-score reported for the compound CC1=C(C(=O)Nc2ccc3n[nH]c(C)c3c2)C(c2ccc(C(F)(F)F)cc2)CC(=O)N1 (stereo unspecified) is 0.3 or above.
Reply text: YES

Inquiry: Confirm if z-score reported for the compound CC1=C(C(=O)Nc2cc(Cl)c3[nH]ncc3c2)C(c2ccc(C(F)(F)F)cc2)CC(=O)N1 (stereo unspecified) is 0.3 or above.
Reply text: NO

Inquiry: Confirm if z-score reported for the compound `COc1ccc(-c2nn3ncccc3c2-c2ccnc(Nc3ccc(Cl)c(C(F)(F)F)c3)n2)cc1` is 0.3 or above.
Reply text: NO

Inquiry: Confirm if z-score reported for the compound `COc1cc(/C=N/Nc2ncnc3[nH]ncc23)ccc1O` is 0.3 or above.
Reply text: YES

----------
Assay: IRF3 reporter activation in THP-1 macrophages, cell-based, PMA-stimulated THP-1, luminescence (AID 1053176)
Details: PMA-differentiated THP-1, IRF3 reporter luminescence; stronger effect = higher value
Kindly return TRUE if reported fraction signal is no lower than 0.001; return FALSE if it is lower.

COMPOUND: CC(C)Nc1ncc2cc(Oc3ccc(F)cc3F)c(=O)n(C)c2n1
CLASS_LABEL: FALSE

COMPOUND: COc1ccccc1C(=O)c1cnc(NC2CCN(S(C)(=O)=O)CC2)nc1N
CLASS_LABEL: TRUE

COMPOUND: COc1cc(F)c(F)cc1C(=O)c1cnc(NC2CCN(S(C)(=O)=O)CC2)nc1N
CLASS_LABEL: FALSE

COMPOUND: O=C1NC(=NCCc2cccc(Cl)c2)SC1=Cc1ccc2ncccc2c1
CLASS_LABEL: FALSE

COMPOUND: Cn1cc(C2=C(Sc3ccccc3)C(=O)NC2=O)c2ccccc21
CLASS_LABEL: TRUE

Inquiry: Confirm if fraction signal reported for the compound `CON=C(c1ccccc1)c1cnn(-c2ccccc2)c1N` is 0.001 or above.
Reply text: TRUE

Inquiry: Confirm if fraction signal reported for the compound `COC(=O)Nc1nc2ccc(S(=O)(=O)c3ccc(NC(=O)Nc4cc(C(F)(F)F)ccc4F)cc3)cc2[nH]1` is 0.001 or above.
Reply text: FALSE

----------
Assay: stimulators of insulin release from INS-1E, primary screen, cell-based, 5 mM glucose, NPC library (AID 1117329)
Settings: rat INS-1E insulin secretion, at 10 µM
Activity calls are given as the source filed them.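 How the source made its calls: active means compound raises insulin release from rat beta cells at 5 mM glucose, no numeric limit stated; inactive means the rest.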
Select the correct class. Options are active, inactive and nothing else.

Please review the entries below; each comes with its answer.
COMPOUND: CC(C)C(=O)Nc1cccc(C2CN3CCSC3=N2)c1 (centres undefined)
CLASS_LABEL: inactive
//
COMPOUND: O=C1CCC(=O)N1CO
CLASS_LABEL: inactive
//
COMPOUND: CC[C@@H]([C@H](C)O)n1ncn(-c2ccc(N3CCN(c4ccc(OC[C@@H]5CO[C@@](Cn6cncn6)(c6ccc(F)cc6F)C5)cc4)CC3)cc2)c1=O
CLASS_LABEL: inactive
//
COMPOUND: CC(COc1ccccc1)N(CCCl)Cc1ccccc1 (centres undefined)
CLASS_LABEL: inactive
//
COMPOUND: CCCc1nc2c(C)cc(-c3nc4ccccc4n3C)cc2n1Cc1ccc(-c2ccccc2C(=O)O)cc1
CLASS_LABEL: inactive
//
COMPOUND: COc1ccc2cc1Oc1cc3c(cc1OC)CC[N+](C)(C)[C@H]3Cc1ccc(cc1)Oc1c(OC)c(OC)cc3c1[C@@H](C2)[N+](C)(C)CC3
CLASS_LABEL: inactive
//
COMPOUND: CCCCCCCCCCCC(=O)OCC(O)CO (centres undefined)
CLASS_LABEL: inactive
//
COMPOUND: CC1=NS(=O)(=O)c2cc(Cl)ccc2N1
CLASS_LABEL: inactive
//
COMPOUND: Cc1onc(-c2c(Cl)cccc2Cl)c1C(=O)Cl
CLASS_LABEL: inactive
//
COMPOUND: CC12CCC(C[N+](C)(CCC[N+](C)(C)C)C1)C2(C)C (centres undefined)
CLASS_LABEL: inactive

For the next question, use this compound.
Inquiry: # fetch the recorded call for `CCCCCC(N)=O` here
Reply text: inactive

----------
Assay: stimulators of insulin release from INS-1E, primary screen, cell-based, 5 mM glucose, NPC library (AID 1117329)
Conditions: rat INS-1E insulin secretion, at 10 µM, stronger effect = higher value
# key: entry, value: insulin secretion stimulation
Respond with the bare value in %.

Worked set:
MOLECULE: Cc1ccc(O)c(-n2nc3ccccc3n2)c1
insulin secretion stimulation / %: -1.4
--
MOLECULE: CCOC(=O)Cn1cccc1-c1nc(-c2ccc(OC)cc2)c(-c2ccc(OC)cc2)s1
insulin secretion stimulation / %: 1.9

Let us examine a further case.
# insulin secretion stimulation (compound: `C/C(=C(/OCCOc1ccc(Cl)cc1)c1ccc(Cl)cc1Cl)n1ccnc1` ) is -0.7

----------
# key: entry, value: fluorescence ratio (interference)
Assay: Cy5 fluorescence quenching or enhancement artefacts, artefact control for HCV NS3 helicase inhibitor project, biochemical, LOPAC1280 (AID 687037)
Conditions: Cy5-DNA-NS3h complex fluorescence interference counterscreen
Format: numeric value only, no unit, no commentary.

Worked set:
MOLECULE: CC(C)NCC(O)c1cc(O)cc(O)c1 (stereo unspecified)
READOUT: fluorescence ratio (interference)
REPORTED_RESULT: 0.9
//
MOLECULE: CC(C)NCC(O)c1ccc(O)c(O)c1 (stereo unspecified)
READOUT: fluorescence ratio (interference)
REPORTED_RESULT: 1
//
MOLECULE: O=C1CCC(N2C(=O)c3ccccc3C2=O)C(=O)N1 (stereo unspecified)
READOUT: fluorescence ratio (interference)
REPORTED_RESULT: 1
//
MOLECULE: O=c1[nH]cnc2[nH]ncc12
READOUT: fluorescence ratio (interference)
REPORTED_RESULT: 0.9
//
MOLECULE: CC1=NS(=O)(=O)c2cc(Cl)ccc2N1
READOUT: fluorescence ratio (interference)
REPORTED_RESULT: 1

# fluorescence ratio (interference) (molecule: `CN(C)CCCN1c2ccccc2CCc2ccccc21` ) is 1

# fluorescence ratio (interference) (molecule: `CC(=O)Nc1nnc(S(N)(=O)=O)s1` ) is 1

# fluorescence ratio (interference) (molecule: Cc1c(OCC(F)(F)F)ccnc1CS(=O)c1nc2ccccc2[nH]1 (stereo unspecified) ) is 1

# fluorescence ratio (interference) (molecule: CCc1cccc2c3c([nH]c12)C(CC)(CC(=O)O)OCC3 (stereo unspecified) ) is 1

# fluorescence ratio (interference) (molecule: `CC[N+](C)(C)c1cccc(O)c1` ) is 1

----------
Target: Mitogen-activated protein kinase 7 (Homo sapiens) (UniProt Q13164)
Sequence (Q13164 whole entry, looked up, the tested form may be a part): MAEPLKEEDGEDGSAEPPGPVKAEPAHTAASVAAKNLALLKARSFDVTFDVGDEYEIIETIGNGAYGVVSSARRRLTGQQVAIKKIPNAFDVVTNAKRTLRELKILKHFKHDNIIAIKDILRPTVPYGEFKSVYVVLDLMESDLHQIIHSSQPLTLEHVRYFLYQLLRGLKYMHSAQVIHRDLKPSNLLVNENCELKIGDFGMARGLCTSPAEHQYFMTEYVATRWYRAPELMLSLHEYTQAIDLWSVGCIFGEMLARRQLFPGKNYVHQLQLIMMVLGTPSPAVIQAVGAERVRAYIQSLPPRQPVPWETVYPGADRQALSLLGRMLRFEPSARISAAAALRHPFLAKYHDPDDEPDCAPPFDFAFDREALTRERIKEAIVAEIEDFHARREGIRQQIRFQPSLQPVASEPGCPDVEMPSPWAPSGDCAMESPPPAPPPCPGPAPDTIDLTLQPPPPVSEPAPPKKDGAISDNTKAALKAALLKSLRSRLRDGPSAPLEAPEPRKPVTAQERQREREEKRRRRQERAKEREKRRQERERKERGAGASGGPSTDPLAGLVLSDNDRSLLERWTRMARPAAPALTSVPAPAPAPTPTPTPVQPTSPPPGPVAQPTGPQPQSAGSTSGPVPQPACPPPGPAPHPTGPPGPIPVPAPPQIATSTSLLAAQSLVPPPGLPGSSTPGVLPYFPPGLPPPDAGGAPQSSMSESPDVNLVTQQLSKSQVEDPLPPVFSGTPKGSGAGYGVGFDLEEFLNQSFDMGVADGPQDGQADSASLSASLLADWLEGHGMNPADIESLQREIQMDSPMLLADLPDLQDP
Assay: ERK5 transactivation activators in reporter cells, primary screen, cell-based, HTS (AID 1508626);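 further: luciferase driven by Gal4-ERK5 fusion binding five Gal4 sites before minimal TATA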
Conditions: HeLa Gal4-ERK5 transactivation, 18 h, at 5 µM, stronger effect = higher value
Active and inactive are the calls of the source.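 How the source made its calls: active means luciferase signal above three times the same-plate solvent-only control wells; inactive means the rest.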
# key: entry, value: luciferase signal

Worked set:
MOLECULE: COc1ccc(OC)c(C(O)CNC(=O)CN)c1 (stereo not drawn)
REPORTED_RESULT: 124 AU (inactive)
//
MOLECULE: C/C=C/C(=O)N(CC)c1ccccc1C
REPORTED_RESULT: 64 AU (inactive)

# luciferase signal (molecule: `OC(Cn1cncn1)(Cn1cncn1)c1ccc(F)cc1F` ) is 32 AU (inactive)

----------
# key: entry, value: tube area decrease
Experiment: inhibition of endothelial tube formation, primary screen, imaging, VEGF stimulated, CD31 staining, tube area, NPC library (AID 1117340)
Details: VEGF-stimulated ADSC/ECFC co-culture, at 10 µM, stronger effect = higher value
Respond with the bare value in %.

# tube area decrease (molecule: CC(CN1c2ccccc2Sc2ccccc21)N(C)C (stereo unspecified) ) is 14.2

# tube area decrease (molecule: CC(C)C(=O)Nc1cccc(C2CN3CCSC3=N2)c1 (stereo unspecified) ) is -4.2
